Data origin, for the record: patent US20250304574A1

assaySystem: human recombinant GPR65 (Homo sapiens)
Sequence (Q8IYL9 whole entry): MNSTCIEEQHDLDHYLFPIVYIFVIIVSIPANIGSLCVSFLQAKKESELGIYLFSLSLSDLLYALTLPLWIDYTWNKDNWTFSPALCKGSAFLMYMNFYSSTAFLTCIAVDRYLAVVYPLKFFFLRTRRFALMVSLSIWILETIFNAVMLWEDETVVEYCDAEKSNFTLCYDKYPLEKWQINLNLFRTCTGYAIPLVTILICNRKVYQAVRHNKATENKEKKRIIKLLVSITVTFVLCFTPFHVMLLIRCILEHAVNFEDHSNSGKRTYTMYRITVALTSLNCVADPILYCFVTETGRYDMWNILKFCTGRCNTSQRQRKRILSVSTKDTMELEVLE
assayRemarks: Human GPR65 cAMP HTRF antagonist assay
condition: 1321N1 cells stably expressing human recombinant GPR65, assay pH 7.2, read-out: hGPR65 IC50
measure: IC50

Need IC50 of O=C(Nc1nnc(C(F)(F)F)s1)N1CCc2cc(=O)[nH]cc2C1 [Compound 7] , thanks.
500 to 5000 nM

Looking for the measured IC50 of O=C(Nc1cc(C(F)(F)F)on1)N1CCc2cc(=O)[nH]cc2C1 [Compound 4] , can you help?
< 500 nM

Name the recorded IC50 for O=C(Nc1cc(Cl)c(Br)cc1F)N1CCc2cc(=O)[nH]cc2C1 [Compound 3] .
< 500 nM

Which IC50 reading was recorded for the molecule O=C(Nc1cc(Cl)c(C(F)(F)F)cc1F)N1CCc2cc(F)ccc2C1 [Compound 11] ?
< 500 nM

So what's the measured IC50 for this one? C=C1CN(C(=O)Nc2cc(Cl)c(C(F)(F)F)cc2F)Cc2ccnc(F)c21 [Compound 24]
< 500 nM

I need IC50 for every entry listed below, if you could help.
1. O=C(Nc1cc(Cl)c(Cl)cn1)N1CCc2cc(F)ncc2C1 [Compound 12]
2. O=C(Nc1cc(Cl)c(C(F)(F)F)cc1F)N1Cc2ccnc(F)c2C(F)C1 (stereo not drawn) [Compound 27]
3. O=C(Nc1cc(Cl)c(Cl)cn1)N1CCc2c(ccnc2F)C1 [Compound 19]
4. O=C(Nc1cc(Cl)c(C(F)(F)F)cn1)N1CCc2c(ccnc2F)C1 [Compound 16]

500 to 5000 nM
< 500 nM
< 500 nM
< 500 nM
